Documented IC50; IL-15 60 pM; NK92/hIL7R/STAT3-luc across a set of binders
# target_of_assay: T1, human IL2Rγ (endogenously expressed on cells) (human, UniProt P31785 23-369)
# T1 sequence (looked up): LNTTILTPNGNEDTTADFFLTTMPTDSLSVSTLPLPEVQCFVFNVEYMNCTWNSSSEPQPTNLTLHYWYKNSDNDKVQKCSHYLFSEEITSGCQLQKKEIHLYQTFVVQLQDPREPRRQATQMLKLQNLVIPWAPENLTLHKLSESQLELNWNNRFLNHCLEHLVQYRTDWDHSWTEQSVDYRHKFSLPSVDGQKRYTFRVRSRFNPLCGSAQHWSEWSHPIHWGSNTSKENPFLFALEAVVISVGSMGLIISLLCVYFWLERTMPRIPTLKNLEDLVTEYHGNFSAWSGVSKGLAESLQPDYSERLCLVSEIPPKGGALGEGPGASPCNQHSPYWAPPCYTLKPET
# test_name: cell-based or functional assay
readout_kind: IC50; IL-15 60 pM; NK92/hIL7R/STAT3-luc

| binder | observed |
| --- | --- |
| H4H12874P (antibody, human IgG4 S228P, kappa, V domains shown, human IgG4) VH: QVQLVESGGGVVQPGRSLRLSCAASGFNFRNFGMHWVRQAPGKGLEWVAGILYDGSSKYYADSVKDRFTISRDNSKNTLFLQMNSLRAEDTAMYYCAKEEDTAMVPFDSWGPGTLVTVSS VL: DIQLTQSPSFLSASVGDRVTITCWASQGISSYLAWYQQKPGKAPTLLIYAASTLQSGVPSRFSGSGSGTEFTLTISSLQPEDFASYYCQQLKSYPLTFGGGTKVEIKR | > 1e-07 M |
| H4H12889P (antibody, human IgG4 S228P, kappa, V domains shown, human IgG4; also called REGN7257) VH: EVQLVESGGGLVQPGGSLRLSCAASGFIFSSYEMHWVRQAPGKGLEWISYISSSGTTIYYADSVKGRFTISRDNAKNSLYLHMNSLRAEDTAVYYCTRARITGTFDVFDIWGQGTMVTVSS VL: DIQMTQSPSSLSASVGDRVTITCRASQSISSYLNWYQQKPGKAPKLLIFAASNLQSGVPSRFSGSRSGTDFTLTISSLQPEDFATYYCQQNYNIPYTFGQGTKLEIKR | 8.5e-09 M |
| H4H12857P (antibody, human IgG4 S228P, kappa, V domains shown, human IgG4; also called REGN9432) VH: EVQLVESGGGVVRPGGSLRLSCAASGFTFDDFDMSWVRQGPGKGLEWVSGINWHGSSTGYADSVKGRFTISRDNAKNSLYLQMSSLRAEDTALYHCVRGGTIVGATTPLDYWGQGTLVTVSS VL: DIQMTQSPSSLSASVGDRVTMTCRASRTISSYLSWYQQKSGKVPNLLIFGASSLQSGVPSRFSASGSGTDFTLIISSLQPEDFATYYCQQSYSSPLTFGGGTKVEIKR | > 1e-07 M |
